system: LOX IMVI; settings: read-out: 50% lethal concentration (LC50), Melanoma
QUANTITY: CC50 (µM)

C=C1CCC2C3(C)COC(c4cn(-c5ccccc5)nc4-c4cccc(Cl)c4)OC3CCC2(C)C1CC=C1C(=O)OCC1O (stereo not shown) = 5.5
C=C1CCC2C3(C)COC(c4cn(-c5ccccc5)nc4-c4ccc(OC)cc4)OC3CCC2(C)C1CC=C1C(=O)OCC1O (stereo not shown) = 5.47
C=C1CCC2C3(C)COC(c4cn(-c5ccccc5)nc4-c4cccc(Br)c4)OC3CCC2(C)C1CC=C1C(=O)OCC1O (stereo not shown) = 5.59
C=C1CCC2C3(C)COC(c4cn(-c5ccccc5)nc4-c4ccccc4)OC3CCC2(C)C1CC=C1C(=O)OCC1O (stereo not shown) = 5.85
C=C1CCC2C3(C)COC(c4cn(-c5ccccc5)nc4-c4ccc(C)cc4)OC3CCC2(C)C1CC=C1C(=O)OCC1O (stereo not shown) = 5.25
C=C1CCC2C3(C)COC(c4cn(-c5ccccc5)nc4-c4cccc(F)c4)OC3CCC2(C)C1CC=C1C(=O)OCC1O (stereo not shown) = 5.25
C=C1CCC2C3(C)COC(c4cn(-c5ccccc5)nc4-c4ccc(Br)cc4)OC3CCC2(C)C1CC=C1C(=O)OCC1O (stereo not shown) = 5.41
C=C1CCC2C3(C)COC(c4cn(-c5ccccc5)nc4-c4ccc(Cl)cc4)OC3CCC2(C)C1CC=C1C(=O)OCC1O (stereo not shown) = 5.48
C=C1CCC2C3(C)COC(c4cn(-c5ccccc5)nc4-c4ccc(F)cc4)OC3CCC2(C)C1CC=C1C(=O)OCC1O (stereo not shown) = 5.09
C=C1CCC2C3(C)COC(c4cn(-c5ccccc5)nc4-c4cccc([N+](=O)[O-])c4)OC3CCC2(C)C1CC=C1C(=O)OCC1O (stereo not shown) = 6.48

====

tested on: HCT-15; settings: HCT-15, Colon
Total growth inhibition (TGI): recorded values
QUANTITY: Total growth inhibition (TGI) (µM)

C=C1CCC2C3(C)COC(c4cn(-c5ccccc5)nc4-c4ccccc4)OC3CCC2(C)C1CC=C1C(=O)OCC1O (stereo not shown) = 3.45
C=C1CCC2C3(C)COC(c4cn(-c5ccccc5)nc4-c4cccc(F)c4)OC3CCC2(C)C1CC=C1C(=O)OCC1O (stereo not shown) = 3.18
C=C1CCC2C3(C)COC(c4cn(-c5ccccc5)nc4-c4ccc(Cl)cc4)OC3CCC2(C)C1CC=C1C(=O)OCC1O (stereo not shown) = 3.21
C=C1CCC2C3(C)COC(c4cn(-c5ccccc5)nc4-c4cccc([N+](=O)[O-])c4)OC3CCC2(C)C1CC=C1C(=O)OCC1O (stereo not shown) = 3.58

====

CC50: recorded values
system: 786-0; conditions: read-out: 50% lethal concentration (LC50); 786-0, Renal
QUANTITY: CC50

C=C1CCC2C3(C)COC(c4cn(-c5ccccc5)nc4-c4ccc(Br)cc4)OC3CCC2(C)C1CC=C1C(=O)OCC1O (stereo not shown) = 9.76 µM
C=C1CCC2C3(C)COC(c4cn(-c5ccccc5)nc4-c4cccc(Br)c4)OC3CCC2(C)C1CC=C1C(=O)OCC1O (stereo not shown) = > 100 µM
C=C1CCC2C3(C)COC(c4cn(-c5ccccc5)nc4-c4cccc([N+](=O)[O-])c4)OC3CCC2(C)C1CC=C1C(=O)OCC1O (stereo not shown) = > 100 µM
C=C1CCC2C3(C)COC(c4cn(-c5ccccc5)nc4-c4ccc(OC)cc4)OC3CCC2(C)C1CC=C1C(=O)OCC1O (stereo not shown) = > 100 µM

All values here come from paper PMC12298351.
